- measurement-target: Beta-lactamase L1 (Stenotrophomonas maltophilia) (UniProt P52700)
- Sequence (P52700 34-290 limits assumed): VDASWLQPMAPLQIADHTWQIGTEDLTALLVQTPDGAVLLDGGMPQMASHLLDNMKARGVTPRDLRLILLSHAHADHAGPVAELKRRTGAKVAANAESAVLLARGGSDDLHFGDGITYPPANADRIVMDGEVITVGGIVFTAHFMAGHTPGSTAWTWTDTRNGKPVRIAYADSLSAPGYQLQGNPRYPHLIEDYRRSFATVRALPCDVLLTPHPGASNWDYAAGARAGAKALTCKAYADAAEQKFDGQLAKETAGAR
- assay-explanation: Inhibition of Stenotrophomonas maltophilia L1 metallo beta lactamase at 200 uM
Readings of inhibition for the listed compounds
measured-property: inhibition

1. O=C(Cc1cc([N+](=O)[O-])ccc1Cl)NC(CCS)C(=O)N[C@H](Cc1ccccc1)C(=O)O (stereo not given in full): 81%
2. O=C(Cc1cccc([N+](=O)[O-])c1)NC(CCS)C(=O)N[C@H](Cc1ccccc1)C(=O)O (stereo not given in full): 81%
3. O=C(NC(CCS)C(=O)N[C@H](Cc1ccccc1)C(=O)O)c1ccccc1-c1ccccc1 (stereo not given in full): 41%
4. O=C(NC(CCS)C(=O)N[C@H](Cc1ccccc1)C(=O)O)c1ccno1 (stereo not given in full): 61%
5. O=C(NC(CCS)C(=O)N[C@H](Cc1ccccc1)C(=O)O)c1cc2ccccc2s1 (stereo not given in full): 61%
